Value source: paper PMC5551578

Target: tetanus toxoid (Clostridium tetani, production strain …, UniProt P04958)
Sequence (P04958 whole entry): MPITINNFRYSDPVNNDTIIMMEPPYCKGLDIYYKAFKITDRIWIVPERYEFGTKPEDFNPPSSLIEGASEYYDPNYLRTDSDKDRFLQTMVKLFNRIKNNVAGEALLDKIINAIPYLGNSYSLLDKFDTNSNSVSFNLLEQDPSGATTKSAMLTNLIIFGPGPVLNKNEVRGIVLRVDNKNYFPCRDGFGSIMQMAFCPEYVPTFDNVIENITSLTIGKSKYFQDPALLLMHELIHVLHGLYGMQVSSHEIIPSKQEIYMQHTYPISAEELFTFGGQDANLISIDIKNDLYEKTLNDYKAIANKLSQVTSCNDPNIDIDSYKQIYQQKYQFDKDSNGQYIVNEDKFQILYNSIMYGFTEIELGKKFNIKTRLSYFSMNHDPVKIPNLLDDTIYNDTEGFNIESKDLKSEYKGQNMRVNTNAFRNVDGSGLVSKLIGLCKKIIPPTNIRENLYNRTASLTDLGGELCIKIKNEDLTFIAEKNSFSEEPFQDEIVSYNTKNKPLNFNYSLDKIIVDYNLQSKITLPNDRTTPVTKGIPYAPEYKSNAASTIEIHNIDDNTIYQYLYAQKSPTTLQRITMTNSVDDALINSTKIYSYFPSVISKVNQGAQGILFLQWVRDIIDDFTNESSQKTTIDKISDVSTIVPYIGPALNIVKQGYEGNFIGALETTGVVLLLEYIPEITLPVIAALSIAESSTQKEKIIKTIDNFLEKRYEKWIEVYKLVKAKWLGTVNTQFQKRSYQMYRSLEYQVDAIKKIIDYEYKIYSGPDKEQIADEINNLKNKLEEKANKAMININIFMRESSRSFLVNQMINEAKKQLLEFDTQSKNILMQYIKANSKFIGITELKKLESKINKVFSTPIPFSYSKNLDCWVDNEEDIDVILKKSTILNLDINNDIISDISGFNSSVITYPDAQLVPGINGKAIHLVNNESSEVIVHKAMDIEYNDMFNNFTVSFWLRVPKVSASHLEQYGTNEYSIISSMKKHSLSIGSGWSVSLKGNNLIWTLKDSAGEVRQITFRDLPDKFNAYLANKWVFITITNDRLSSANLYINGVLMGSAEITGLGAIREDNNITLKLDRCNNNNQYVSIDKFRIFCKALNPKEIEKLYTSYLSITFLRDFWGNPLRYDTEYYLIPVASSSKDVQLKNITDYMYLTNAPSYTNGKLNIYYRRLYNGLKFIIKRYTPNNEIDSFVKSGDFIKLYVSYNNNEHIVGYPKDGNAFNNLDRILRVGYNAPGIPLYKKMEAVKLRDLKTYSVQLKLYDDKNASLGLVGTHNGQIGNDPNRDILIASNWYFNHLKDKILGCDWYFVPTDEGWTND
Measure: binding result

Recorded results for 5 binders are shown here.
TT-Ab5 (antibody, V domains shown) VH: EVQLVQSGAEVKKPGSSVKVSCTAPGVTFSTYPIDWVRQAPGQGLEWMGGIIPISGSPKYAQKFQGRVAITADGFTNTAYLELSSLRSEDTAVYYCATRESGYDGQFDYWGQGTLVTVSS VL: QSVLTQPPSASGTPGQRVTISCTGSTSNIGNNYVYWYQQVPGTAPTLLIYRSNQRPSGVPDRFSGSKSGTSASLAISGLRSEDEADYYCATWDDSLGVVFGGGTKLTVL :: binds
TT-Ab11 (antibody, V domains shown) VH: QVQLQESGPGLVKPSQTLSLTCNVSDGSISSDGYYWSWLRQHPGKGPEWIGYIHHSGHPYYNPSLKSRVTMSIDTSKNQFALKLSSVTAVDTAMYYCARVRGTGYYPGTLDLWGQGTLVTVSS VL: EIVLTQSPGTLSLSPGERATLSCRASQSVSSSYFAWYQQIPGQAPRLLIYGTSNRATGIPDRFSGSGSGKDFTLTISRLEPEDFAVYYCQQFGSSPLTFGGGTKVEIK :: binds
TT-Ab2 (antibody, V domains shown) VH: EVQLVESGAEVKKPGASVKLSCKASGYTVTSDYMHWVRQAPGQGLEWMGIINPSDGSTNYPRKFQGRVTMTRDTSTRTVYMEVSSLRSEDTAVYYCAGGGQRFTFDYWGQGATVTVSS VL: QSALTQPASVSGSPGQSITISCTGTSGNVGSHNLVSWYQQHPGEAPKLVISDINRRPSGVSNRFSGSKSGNTASLTISGLQAEDEADYFCCSYAGNSNVIFGGGTKLTVL :: binds
TT-Ab13 (antibody, V domains shown) VH: EVQLVESGAEVKKPGESLRISCKGSGYSFTTYWIGWVRQMPGKGLEWIGIIYAGDSDTRYSPSFQGQVTMPVDKSITTAYLQWSSLKASDTAMYYCARQGDPSSYLTSGFEFWGQGTLVTVSS VL: DIQMTQSPSTLSASVGDGVTITCRASQSISRWLAWYQQKPGKAPKLLIYQASRLESGVPSRFSGSGSGTEFTLSISSLQPDDFATYYCHQYNSYSQTFGQGTKVEIK :: binds
TT-Ab8 (antibody, V domains shown) VH: EVQLVESGGGLVQPGGSLRLSCAASGFTFSYYDMNWVRQAPGKGLEWLSYISGSGGVIYYADSVKGRFTISRDNAKNSLFLQMNSLRAEDTAVYYCARDPSPGRLGFFDYWGQGTLVTVSS VL: EIVMTQSPAILSVSPGERATLSCRASQRVSSNLAWYQQKPGQAPRLLIYGASTRATGIPARFSGSGSGTEFTLTISSLQSEDCAIYYCQQYNNWPRTFGQGTKVEIK :: binds

Provide the reported binding result of each entry below, same order.
1. TT-Ab1 (antibody, V domains shown) VH: QVQLQESGAEVKNLGASVKVSCKASGYIFTNYGITWVRQAPGQGLEWIGWTTIYNGNTNYARKLQGRVTMTTGTSTRTAYMELRSLKSDDTAMYYCARGLRHYHDGSPLEYWGQETTVTVSS VL: DIVMTQSPGTLSLSPGERVTLSCRASQSVGSSYLAWYQQKPGQTPRLLVFGASSRATGIPDRFSGSGSGTDFTLTISRLEPEDFAVYYCQLYGNSLITFGQGTRLEIK
2. TT-Ab6 (antibody, V domains shown) VH: EVQLLESGGGLVRPGGSLRLSCAASGFSFNDHYMTWVRQAPGKGLEWVSYISDGRVTTNYAASVKGRFIISRDNTKKTVYLQMNSLTAEDTAVYYCARVGPWPVMKGAFDSWGQGTLVTVSS VL: DIQMTQSPGTLSLSPGERATISCRASQSVSSDYLVWYQQKPGQAPRLLIYGASRRATGIPDRFSGSGSGTDFTLTISRLEPEDFAVYYCQQYGSSPLFAFGPGTKVEIK

[reply]
binds
binds
